biological target: T1, mouse programmed cell death protein 1 Fc fusion protein (mPD-1-Fc), mPD-1 C60S (aa 25-167) (Mus musculus, UniProt Q02242, stabilised); experiment: SPR; Carterra LSA; Fab from the ammonium sulfate precipitate of the culture supernatant immobilised on a NiHC200M chip; hPD-1 (1-1024 nM) or mPD-1-Fc (4-1024 nM) as analyte, fourfold dilution series, no regeneration; HBS-EP pH 7.4, 25 °C; medians over the spots of a construct, KD = koff/kon; details: one partner purified
T1 construct: not cleaved; source: Expi293F, purified (Protein A, SEC; dimeric fraction); not shown: Fc (human), C-terminal, kept
Checkbox rule: Kd lower than 400 nM = Yes; Kd not lower than 400 nM = No.

Solved cases below.
[[record]]
binder = "toripalimab Fab L.V99Y (Fab, V domains shown, as the heavy chain of Sm3; light chain of Sm3 with this change; numbers count from the chain's first residue; source: Brevibacillus, culture supernatant (ammonium sulfate precipitate); not shown: 6xHis, C-terminal, kept; 6xHN, C-terminal, kept) VH: QGQLVQSGAEVKKPGASVKVSCKASGYTFTDYEMHWVRQAPIHGLEWIGVIESETGGTAYNQKFKGRVTITADKSTSTAYMELSSLRSEDTAVYYCAREGITTVATTYYWYFDVWGQGTTVTVSS VL: DVVMTQSPLSLPVTLGQPASISCRSSQSIVHSNGNTYLEWYLQKPGQSPQLLIYKVSNRFSGVPDRFSGSGSGTDFTLKISRVEAEDVGVYYCFQGSHYPLTFGQGTKLEIK"
class_name = "No"

[[record]]
binder = "toripalimab Fab L.L101N (Fab, V domains shown, as the heavy chain of Sm3; light chain of Sm3 with this change; numbers count from the chain's first residue; source: Brevibacillus, culture supernatant (ammonium sulfate precipitate); not shown: 6xHis, C-terminal, kept; 6xHN, C-terminal, kept) VH: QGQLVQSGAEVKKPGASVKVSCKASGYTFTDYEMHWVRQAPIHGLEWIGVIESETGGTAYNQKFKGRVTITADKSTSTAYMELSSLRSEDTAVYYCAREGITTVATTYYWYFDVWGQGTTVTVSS VL: DVVMTQSPLSLPVTLGQPASISCRSSQSIVHSNGNTYLEWYLQKPGQSPQLLIYKVSNRFSGVPDRFSGSGSGTDFTLKISRVEAEDVGVYYCFQGSHVPNTFGQGTKLEIK"
class_name = "Yes"


For toripalimab Fab L.V30A (Fab, V domains shown, as the heavy chain of Sm3; light chain of Sm3 with this change; numbers count from the chain's first residue; source: Brevibacillus, culture supernatant (ammonium sulfate precipitate); not shown: 6xHis, C-terminal, kept; 6xHN, C-terminal, kept) VH: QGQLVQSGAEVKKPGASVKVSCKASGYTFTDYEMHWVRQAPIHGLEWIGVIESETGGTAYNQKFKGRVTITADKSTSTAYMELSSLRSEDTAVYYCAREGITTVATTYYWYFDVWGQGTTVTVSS VL: DVVMTQSPLSLPVTLGQPASISCRSSQSIAHSNGNTYLEWYLQKPGQSPQLLIYKVSNRFSGVPDRFSGSGSGTDFTLKISRVEAEDVGVYYCFQGSHVPLTFGQGTKLEIK , is the recorded Kd below the cut-off of 400 nM?
Yes

For toripalimab Fab L.R24Y (Fab, V domains shown, as the heavy chain of Sm3; light chain of Sm3 with this change; numbers count from the chain's first residue; source: Brevibacillus, culture supernatant (ammonium sulfate precipitate); not shown: 6xHis, C-terminal, kept; 6xHN, C-terminal, kept) VH: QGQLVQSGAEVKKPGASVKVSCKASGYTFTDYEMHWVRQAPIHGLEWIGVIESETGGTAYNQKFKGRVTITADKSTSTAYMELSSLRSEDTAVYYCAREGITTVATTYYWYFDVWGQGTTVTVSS VL: DVVMTQSPLSLPVTLGQPASISCYSSQSIVHSNGNTYLEWYLQKPGQSPQLLIYKVSNRFSGVPDRFSGSGSGTDFTLKISRVEAEDVGVYYCFQGSHVPLTFGQGTKLEIK , is the recorded Kd below the cut-off of 400 nM?
Yes

For toripalimab Fab L.V99Q (Fab, V domains shown, as the heavy chain of Sm3; light chain of Sm3 with this change; numbers count from the chain's first residue; source: Brevibacillus, culture supernatant (ammonium sulfate precipitate); not shown: 6xHis, C-terminal, kept; 6xHN, C-terminal, kept) VH: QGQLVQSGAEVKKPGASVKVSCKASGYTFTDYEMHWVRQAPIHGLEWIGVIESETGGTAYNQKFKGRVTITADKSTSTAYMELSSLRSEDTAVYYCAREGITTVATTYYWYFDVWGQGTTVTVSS VL: DVVMTQSPLSLPVTLGQPASISCRSSQSIVHSNGNTYLEWYLQKPGQSPQLLIYKVSNRFSGVPDRFSGSGSGTDFTLKISRVEAEDVGVYYCFQGSHQPLTFGQGTKLEIK , is the recorded Kd below the cut-off of 400 nM?
No
